Provenance of the data: patent US7713994B2

Consider the following compounds; for each one, report its IC50.
# target-or-test-system: cyclin D1/cdk 4 enzyme (Homo sapiens)
# Construct: made in house; host or cells: Sf9 insect cells, recombinant baculovirus
# Sequence (P11802 whole entry, species assumed): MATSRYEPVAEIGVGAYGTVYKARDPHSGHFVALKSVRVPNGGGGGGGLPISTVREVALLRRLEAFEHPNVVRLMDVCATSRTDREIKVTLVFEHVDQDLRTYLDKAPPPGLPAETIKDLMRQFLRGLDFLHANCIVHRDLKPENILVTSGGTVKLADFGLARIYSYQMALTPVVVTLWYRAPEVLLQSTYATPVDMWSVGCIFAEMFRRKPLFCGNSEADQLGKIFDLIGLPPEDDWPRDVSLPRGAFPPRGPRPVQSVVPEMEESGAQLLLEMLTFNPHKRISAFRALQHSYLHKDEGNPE
# Sequence (P24385 whole entry partner, species assumed): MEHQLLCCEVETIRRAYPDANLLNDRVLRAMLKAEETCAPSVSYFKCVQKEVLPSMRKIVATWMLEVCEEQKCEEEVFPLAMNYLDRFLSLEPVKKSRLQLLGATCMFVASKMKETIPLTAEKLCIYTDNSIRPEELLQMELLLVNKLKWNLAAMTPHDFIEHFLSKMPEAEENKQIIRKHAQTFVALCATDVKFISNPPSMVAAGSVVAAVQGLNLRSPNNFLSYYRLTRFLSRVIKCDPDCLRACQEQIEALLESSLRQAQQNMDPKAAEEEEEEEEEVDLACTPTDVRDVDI
# experiment-summary: CDK4 ELISA kinase assay (phospho-Rb ser 795 detection)
# Format: biochemical
# assay-conditions: In Vitro Enzyme Assays, 200 μM ATP, read-out: CDK4 IC50

**Query** Item under review: C[C@@H]1CN(c2ccc(N/C=C3\C(=O)NC(=O)c4ccc(Br)cc43)cc2C(F)(F)F)C[C@H](C)N1 [Example 372] . Reported IC50?
**Result** > 50 µM

**Query** How about this compound: C/C=C/C(=O)Nc1ccc2c(c1)/C(=C/Nc1ccc(N3CCN(C)CC3)cc1)C(=O)NC2=O [Example 384]
**Result** > 50 µM

**Query** How about this compound: O=C1NC(=O)c2ccc(Br)cc2/C1=C/NCc1ccncc1 [Example 31]
**Result** > 50 µM
